Molecular target: Neprilysin (Homo sapiens, UniProt P08473)
Sequence (P08473 whole entry): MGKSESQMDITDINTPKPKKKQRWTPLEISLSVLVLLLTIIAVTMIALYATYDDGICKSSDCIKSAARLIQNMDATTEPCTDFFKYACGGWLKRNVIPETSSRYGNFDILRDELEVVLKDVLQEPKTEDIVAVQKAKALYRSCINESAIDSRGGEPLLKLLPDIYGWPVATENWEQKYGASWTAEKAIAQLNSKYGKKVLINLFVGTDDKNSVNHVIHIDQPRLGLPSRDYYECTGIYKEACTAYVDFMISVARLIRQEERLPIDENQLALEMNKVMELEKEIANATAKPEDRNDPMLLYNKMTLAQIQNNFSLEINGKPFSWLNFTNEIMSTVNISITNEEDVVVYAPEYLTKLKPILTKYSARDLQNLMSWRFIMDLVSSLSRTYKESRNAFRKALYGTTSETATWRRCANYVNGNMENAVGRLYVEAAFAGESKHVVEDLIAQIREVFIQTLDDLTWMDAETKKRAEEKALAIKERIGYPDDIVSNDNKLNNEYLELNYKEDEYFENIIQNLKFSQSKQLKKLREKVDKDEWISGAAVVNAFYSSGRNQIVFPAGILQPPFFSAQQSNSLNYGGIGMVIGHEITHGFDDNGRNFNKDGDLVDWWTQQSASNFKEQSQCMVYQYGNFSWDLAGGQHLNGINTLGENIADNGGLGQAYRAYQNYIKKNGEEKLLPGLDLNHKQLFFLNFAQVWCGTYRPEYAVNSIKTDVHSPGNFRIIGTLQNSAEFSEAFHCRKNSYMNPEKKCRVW
Experiment: Inhibition of neutral endopeptidase in human umbilical vein endothelial cells
Format: cell-based, Endothelial cell
pIC50: −log10 of the molar value.
Listed below: pIC50 values for each entry.

Consider the worked cases shown below.
O=C(N[C@@H](Cc1ccccc1)P(=O)(O)CC(Cc1ccccc1)C(=O)N[C@H](Cc1ccccc1)C(=O)O)OCc1ccccc1 (some centres undefined); < 4.22
N=C(N)NCCC[C@@H](NC(=O)C(Cc1ccccc1)CP(=O)(O)[C@H](Cc1ccccc1)NC(=O)OCc1ccccc1)C(=O)O (mixture of isomers); < 4.22
C[C@H](O)[C@@H](NC(=O)C(Cc1ccccc1)CP(=O)(O)[C@H](Cc1ccccc1)NC(=O)OCc1ccccc1)C(=O)O (stereo in doubt); < 4.00

Now for the compound whose pIC50 we want.
Record request: pIC50 value, item NCCCCC(NC(=O)C(Cc1ccccc1)CP(=O)(O)[C@H](Cc1ccccc1)NC(=O)OCc1ccccc1)C(=O)O (mixture of isomers) < 4.00
